Values were extracted from patent US20230382979A1.

Reported IC50, live virus micro-neutralization WA1/2020 values are given for each entry in this list.
- assay system: SARS-CoV-2 spike protein on live virus, strain USA-WA1/2020 (SARS-CoV-2, WA01/2020 strain, UniProt P0DTC2 14-1273)
- test protocol: cell-based or functional assay
Only the number, expressed in pM, is required.

>>> reported("antibody 1589 (antibody, V domains shown) VH: EVQLVESGGGLIQVGGSLRLSCAASGLTVTSNYMNWVRQGPGKGLEWVSLIYSGGTTYYADSVKGRFTISRDDSKNTLYLQMNSLRAEDTAVYYCARPIVGARSGMDVWGQGTAVTVSS VL: DIQMTQSPSSLSASVGDRVTITCQASQDINKYLNWYQQKPGKAPKLLIYDASNLETGVPSRFSGSGSGTDFTFTISSLQPEDLATYYCHQFDNLPGTFGGGTKVEIK")
66.7

*Q* Endpoint output: IC50, live virus micro-neutralization WA1/2020 of antibody 4042 (antibody, V domains shown) VH: QITLKESGPTLVKPTQTLTLTCTFSGFSLSSGGVGVGWIRQPPGKALEWLALIYWDDDKRYRPSLKSRLTITRDTSTNQVVLTMTNMDPVDTATYFCARHQIATVFDHWGQGTLVTVSS VL: QSALTQPASVSGSPGQSITISCTGTSSDVGGYNYVSWYQQHPGKAPKLMIYEVSNRPSGVSSRFSGSKSGNTASLTISGLQAEDEADYYCSSYTRSSPLVAFGGGTKVTVL . Value?
*A* 39
